Below, each entry is listed alongside its reported BSCL2 expression, RNA-seq result.
System: hepatocytes
Assay: RNA-seq of hepatocytes treated with Phase III failure compounds
Conditions: gene BSCL2; hepatocytes
Where a name gives a salt, the structure may show the parent alone.
Give the value as a plain number.

Guide cases for BSCL2 expression, RNA-seq result, answers given:
[[record]]
compound = "Fc1ccc(C(OCCN2CCN(CCCc3ccccc3)CC2)c2ccc(F)cc2)cc1 [Vanoxerine (dihydrochloride), Vanoxerine]"
observed_value = "−0.45"

[[record]]
compound = "CN(C)[C@@H]1C(O)=C(C(N)=O)C(=O)[C@@]2(O)C(O)=C3C(=O)c4c(O)c(NC(=O)CN5CCCC5)cc(F)c4C[C@H]3C[C@@H]12 [TP-434 (Eravacycline), Eravacycline]"
observed_value = 1.5

[[record]]
compound = "CC(C)[C@H](O)C(=O)N[C@@H](C)C(=O)N[C@@H]1C(=O)N(C)CCc2ccccc21"
observed_value = 0.05

[[record]]
compound = "COc1nc(N)nc2c1ncn2[C@@H]1O[C@H](COP(=O)(N[C@@H](C)C(=O)OCC(C)(C)C)Oc2cccc3ccccc23)[C@@H](O)[C@@]1(C)O (stereo partly drawn)"
observed_value = 0.07


**Q:** Value lookup for BSCL2 expression, RNA-seq result; key = "COc1nc(C)cnc1NS(=O)(=O)c1cccnc1-c1ccc(-c2nnco2)cc1"
**A:** −3.20

**Q:** Find the recorded BSCL2 expression, RNA-seq result belonging to Cn1c(COP(=O)(NCCBr)NCCBr)cnc1[N+](=O)[O-] [TH-302 (Evofosfamide), Evofosfamide] and report it.
**A:** −0.03
